# System: HL-1
# Assay Procedure: cardiomyocyte survival under oxidative or metabolic stress – cell-based, panel, H9c2 and HL-1, H2O2, 2-deoxyglucose, ATP luminescence, SAR follow-up (AID 651642)
# Measurement Conditions: H9c2/HL-1 cardiomyocyte 2-deoxyglucose damage, run 3, with 2-deoxyglucose
pIC50: −log10 of the molar value.
Below, each entry is listed alongside its reported pIC50.

Answered examples (3):
- Compound: "COc1cc(-c2cc(C(=O)Nc3cccc(C(C)=O)c3)c3cc(Br)ccc3n2)cc(OC)c1OC"
  pIC50: "< 4.10"
- Compound: "COc1ccc2c(c1OC)C(=O)N1c3ccccc3C(=O)N(Cc3ccccc3Cl)C21 (centres undefined)"
  pIC50: 5.57
- Compound: "CCOC(=O)c1cccc(NC(=O)CNC(=O)c2cc(-c3cc(OC)c(OC)c(OC)c3)nc3c(Cl)cccc23)c1"
  pIC50: "< 4.10"

Requested field: pIC50. Item: CCOC(=O)c1cccc(NC(=O)CNC(=O)c2cc(-c3cc(OC)c(OC)c(OC)c3)nc3ccccc23)c1 < 4.10

Requested field: pIC50. Item: CCOC(=O)c1cccc(NC(=O)c2cc(-c3cc(OC)c(OC)c(OC)c3)nc3ccccc23)c1 < 4.10

Requested field: pIC50. Item: COc1cc(-c2cc(C(=O)NCC(=O)O)c3ccccc3n2)cc(OC)c1OC < 4.10

---

# System: HL-1
# Assay Procedure: cardiomyocyte survival under oxidative or metabolic stress – cell-based, panel, H9c2 and HL-1, H2O2, 2-deoxyglucose, ATP luminescence, SAR follow-up (AID 651642)
# Measurement Conditions: H9c2/HL-1 cardiomyocyte 2-deoxyglucose damage, mean of runs, with 2-deoxyglucose, mean IC50 across panel
Measurement Label: pIC50
Value format note: pIC50 is -log10 of concentration (mol/L); just state the number.

- Compound: "COc1ccc2c(c1OC)C(=O)N1c3ccccc3C(=O)N(Cc3cccc(C)c3)C21 (centres undefined)"
  pIC50: 4.97

Requested field: pIC50. Item: COc1ccc2c(c1OC)C(=O)N1c3ccccc3C(=O)N(Cc3ccccc3Br)C21 (centres undefined) 4.87

Requested field: pIC50. Item: COc1ccc2c(c1OC)C(=O)N1c3ccccc3C(=O)N(Cc3cccc(Br)c3)C21 (centres undefined) 5.13

---

Below, each entry is listed alongside its reported IC50.
# Test system: H9c2
# Assay Procedure: cardiomyocyte survival under oxidative or metabolic stress – cell-based, panel, H9c2 and HL-1, H2O2, 2-deoxyglucose, ATP luminescence, SAR follow-up (AID 651642)
# Measurement Conditions: H9c2/HL-1 cardiomyocyte H2O2 oxidative damage, run 3, with H2O2

Requested field: IC50. Item: COc1ccc2c(c1OC)C(=O)N1c3ccccc3C(=O)N(Cc3ccccc3F)C21 (stereo not drawn) > 79 µM

Requested field: IC50. Item: CCOC(=O)c1cccc(NC(=O)CNC(=O)c2cc(-c3cc(OC)c(OC)c(OC)c3)nc3c(Cl)cccc23)c1 > 79 µM

---

# Test system: H9c2
# Assay Procedure: cardiomyocyte survival under oxidative or metabolic stress – cell-based, panel, H9c2 and HL-1, H2O2, 2-deoxyglucose, ATP luminescence, SAR follow-up (AID 651642)
# Measurement Conditions: H9c2/HL-1 cardiomyocyte 2-deoxyglucose damage, mean of runs, with 2-deoxyglucose, mean IC50 across panel
Measurement Label: IC50 (µM)
Provide the reading as a plain figure in µM.

Answered examples (3):
- Compound: "COc1ccc2c(c1OC)C(=O)N1c3ccccc3C(=O)N(Cc3ccccc3Cl)C21 (stereo not given)"
  Test System: "H9c2"
  IC50, µM: 15.8
- Compound: "COc1cc(-c2cc(C(=O)NCC(=O)Nc3ccc(C(C)=O)cc3)c3cc(C)ccc3n2)cc(OC)c1OC"
  Test System: "H9c2"
  IC50, µM: 5.83
- Compound: "COc1ccc(NC(=O)CNC(=O)c2cc(-c3cc(OC)c(OC)c(OC)c3)nc3ccccc23)cc1"
  Test System: "H9c2"
  IC50, µM: 12.8

Okay, next one:
Requested field: IC50. Item: COc1ccc2nc(-c3cc(OC)c(OC)c(OC)c3)cc(C(=O)NCC(=O)Nc3cccc(C(C)=O)c3)c2c1 2.63
